Tested on: CHIKV
TEST PROTOCOL: microbe, parasite or virus in culture
Type: cell-based, chikungunya virus
APPLIED CONDITIONS: Chikungunya virus, HEK293; HEK-293 cells pretreated with dilutions of each drug, CHIKV-GFP, 18 h p.i.
Listed compounds paired with reported pIC50
pIC50 here is simply -log10 of the concentration when that concentration is written in mol/L.

Record excerpt, results attached:
COc1cc2nccc(Oc3ccc(NC(=O)Nc4cc(C)on4)c(Cl)c3)c2cc1OC :: 6.10
CNC(=O)c1cc(Oc2ccc(NC(=O)Nc3ccc(Cl)c(C(F)(F)F)c3)cc2)ccn1 :: 5.95
COc1ccc2c(c1)[nH]c1c(/C=C/c3ccccc3)nccc12 :: 5.99
Cc1ccc(F)c(NC(=O)Nc2ccc(-c3cccc4[nH]nc(N)c34)cc2)c1 :: 5.67
COc1cc(N2CCC(N3CCN(C)CC3)CC2)ccc1Nc1ncc(Cl)c(Nc2ccccc2S(=O)(=O)C(C)C)n1 :: 6.82
OCCN1CCN(CCCN2c3ccccc3Sc3ccc(Cl)cc32)CC1 :: 6.20
O=c1[nH]c2ccccc2n1C1CCN(CCCC(c2ccc(F)cc2)c2ccc(F)cc2)CC1 [Pimozide] :: 6.55
CCCCCCCCCCCCCCOc1ccc(C(=O)O)o1 :: 6.82
O=c1cc(-c2ccccc2)oc2ccc(O)cc12 [6-Hydroxyflavone] :: 5.59
CCCCCCCCCCC[C@@H](C[C@@H]1OC(=O)[C@H]1CCCCCC)OC(=O)[C@H](CC(C)C)NC=O :: 6.09

Okay, next one:
Identify the reported pIC50 for the following entry. C/C=C/C/C=C/CCC(=O)[C@H]1O[C@H]1C(N)=O 5.52

---

Tested on: CHIKV
Assay type: cell-based, chikungunya virus
Measured Score_si4, listed per entry for reference.
Form: value (number only, do not type unit).

State its Score_si4 for this substance: s11586 (sense GGATAGTGTTCTTAGCAAT; chemistry not given here) 0.13

---

Test system: CHIKV
Assay type: cell-based, chikungunya virus
ASSAY METRIC: Score_si4

Using the record for s5082 (sense CCTCGATAATATAACACGA; chemistry not given here) , state its measured Score_si4. 0.67

Item Hs_LOXL2_4 (sense CTCGAGATTCCGGAAAGCATA; chemistry not given here) : provide Score_si4 0.97

Give reported Score_si4 value for Hs_PTBP1_18 (sense GCGCGTGAAGATCCTGTTCAA; chemistry not given here) [reference compound] -0.53

Could you please provide reported Score_si4 for s30118 (CCTGCTATCTTGGTTCCAA; chemistry not given here) ? Thanks! 0.62

Give reported Score_si4 value for s38294 (GGGTCCTGTTCATAAAGGA; chemistry not given here) 1.14

---

# Score_si1 per record follows
Test system: CHIKV
Format: cell-based, chikungunya virus
Answer field: number only, no words.

A selection of reference data follows.
s18241 (GCTTGATGGTTCAACTCCA; chemistry not given here) :: 2.01
s915 (CATCCAGTCTGTATACGAA; chemistry not given here) :: 1.9
s12353 (sense GGCATGTCGGTTACAAGAA; chemistry not given here) :: 1.86
Hs_AP3S2_2 (CAGGGCTTAGGCGCCCATAAA; chemistry not given here) :: 1.97

Find the measured Score_si1 of Hs_PEX19_1 (ATGGGTGGCTTCATGAATTAA; chemistry not given here) with CHIKV as test system. 1.26

# lookup: CHIKV Score_si1, key = Hs_FLJ20530_2 (sense TTGACTTATCTTCATCATAAA; chemistry not given here) 2.95

# lookup: CHIKV Score_si1, key = Hs_THRAP6_6 (sense CTGAGATTGGTATATGACAAA; chemistry not given here) [reference compound] -1.48

Provide Score_si1, tested on CHIKV, for Hs_CDK4_2 (sense CAAGGTAACCCTGGTGTTTGA; chemistry not given here) . 1.6

Provide Score_si1, recorded with CHIKV, of Hs_POLDIP3_2 (CCGGCTCAAACTGGGAGTCAA; chemistry not given here) 2.49

Under CHIKV, report Score_si1 for Hs_NPEPL1_3 (CTGCAATGAGATGAACACCGA; chemistry not given here) 2.35

---

Known Score_si3 of a selection of substances
System: CHIKV
Assay type: cell-based, chikungunya virus

s38242 (CGGTCTCATGTACCAGAAA; chemistry not given here) :: 0.52
s26119 (sense CATGGATGAGTTTACCCAA; chemistry not given here) [reference compound] :: -0.65
s25624 (sense GGAATGGTGTTGATACAAA; chemistry not given here) [reference compound] :: -0.7
s16461 (GGTCAATCCTAGTATCTCT; chemistry not given here) :: 0.88
s19089 (sense GGATAAGACAGTAACCCGA; chemistry not given here) [reference compound] :: -0.56
s12384 (sense TCGTCCTCTTTAACCCTGA; chemistry not given here) :: 1.24
Hs_PHF10_4 (TCCAGGGAAGACAGAAATCAA; chemistry not given here) :: 0.57

Please find the next substance below.
Tell me Score_si3 reported for s15797 (GGAATTACGGAGATATAGA; chemistry not given here) 1.45

---

Tested on: HEK-293 cells
TEST PROTOCOL: Cell viability, Cell Proliferation Reagent WST-1
Assay type: cell-based, human
APPLIED CONDITIONS: Homo sapiens, HEK293, 18 h, read-out: WST-1 IC50
# maps each entry to its IC50
Give the number; µM is assumed, so skip it.

Some solved cases for reference:
CCCCn1c2cc(OC)c(Cl)cc2c2ccnc(C)c21 :: 10.6
CCOC(=O)C1=C(C)NC(C)=C(C(=O)OC)C1c1cccc(Cl)c1Cl (stereo not drawn) :: 12.1
CNC(=O)c1cc(Oc2ccc(NC(=O)Nc3ccc(Cl)c(C(F)(F)F)c3)cc2)ccn1 :: 18.2
C/C=C/C/C=C/CCC(=O)[C@H]1O[C@H]1C(N)=O :: 7.57

Please give the documented IC50 of COc1cc2nccc(Oc3ccc(NC(=O)Nc4cc(C)on4)c(Cl)c3)c2cc1OC 8.34

For the compound O=C1Cc2c([nH]c3ccc([N+](=O)[O-])cc23)-c2ccccc2N1 , give its reported IC50. 44.4

Annotate the compound O=c1[nH]c2ccccc2n1C1CCN(CCCC(c2ccc(F)cc2)c2ccc(F)cc2)CC1 [Pimozide] with its measured IC50. 19.2

In one line, give reported IC50 of the entry COc1ccc2c(c1)[nH]c1c(/C=C/c3ccccc3)nccc12 . 9.19

Input COc1cc(N2CCC(N3CCN(C)CC3)CC2)ccc1Nc1ncc(Cl)c(Nc2ccccc2S(=O)(=O)C(C)C)n1 , output reported IC50. 2.07

---

Entries annotated with measured Score_si2
System: CHIKV
Type: cell-based, chikungunya virus
Please give only the number in your answer, with no unit.

s12099 (sense GCTTGTAGGTGATACACCT; chemistry not given here) :: 1.09
Hs_PCBP1_3 (CACAACTTTATCATCCGCTAA; chemistry not given here) :: 1.85
s31318 (GTACATCTTCGAATACGAT; chemistry not given here) :: 1.43
s7586 (sense CCTACTGTCTGGTAGCGAT; chemistry not given here) :: 1.49

Report Score_si2 from CHIKV testing of s12382 (sense GATCCGAGCTAAAATCCCA; chemistry not given here) 1.86

Find Score_si2 for Hs_TRAF2_2 (CAGAGTTATTAAACCATTCAA; chemistry not given here) [reference compound] on CHIKV and write it down. -0.92

Find the measured Score_si2 of s3114 (GAAGAGCAGTCACAGATCA; chemistry not given here) with CHIKV as test system. 2.05

Tell me Score_si2 of Hs_GPSN2_1 (sense CTGGATCGGTTTCGCCATCAT; chemistry not given here) when tested on CHIKV. 2.41

// fetch Score_si2; item: s194476 (sense GCATGCTGCTGGCAGATCA; chemistry not given here) ; system: CHIKV 1.47

Provide Score_si2, recorded with CHIKV, of Hs_SYMPK_2 (sense CAGCCTGGTGACACAGTTCAA; chemistry not given here) 1.86

# assay system CHIKV: give Score_si2 of s9627 (GGACCAGTTTGAGAGTGAA; chemistry not given here) 1.39

---

Reported Score_si3 values for the following substances.
System: CHIKV
Assay type: cell-based, chikungunya virus
Enter the number alone.

s35400 (ACGCAGAGGCGGGAACAAA; chemistry not given here) :: 0.6

Provide measured Score_si3 value, entry: s8004 (sense GTGGAGGAATGGTTCAATA; chemistry not given here) 0.87

Could you please provide reported Score_si3 for Hs_SEC61B_2 (sense CCCAACATTTCTTGGACCAAA; chemistry not given here) ? Thanks! 1.09

Report measured Score_si3; entry is Hs_PTX3_3 (sense AAAGGGATTTGTATTAATTTA; chemistry not given here) 1.09

Entry s916 (GCATCGCAAACTTCACCAA; chemistry not given here) needs its Score_si3 filled in; supply it. 1.06
